target: T1, c-erbB-2 ECD with a Ser-Gly-His6 C-terminal fusion (UniProt P04626 23-652); experiment: SPR BIAcore
T1 construct: extracellular domain; Expressed from CHO cells, IMAC purified; coupled to a CM5 chip, coated on plates, or biotinylated with NHS-LC-biotin; also called c-erbB-2 extracellular domain; biotinylated c-erbB-2 ECD
ASSAY METRIC: Kd (nM)
Please respond with the number in nM and leave the unit unwritten.

BINDER | ASSAY METRIC | READOUT VALUE
C6-B47D5 (scFv, Combined B47 and D5 mutations on C6ML3-9) scFv: QVQLLQSGAELKKPGESLKISCKGSGYSFTSYWIAWVRQMPGKGLEYMGLIYPGDSDTKYSPSFQGQVTISVDKSVSTAYLQWSSLKPSDSAVYFCARHDVGYCTDRSCAKWPEWMQMWGQGTLVTVSSGGGGSGGGGSGGGGSQSVLTQPPSVSAAPGQKVTISCSGSSSNIGNNYVSWYQQLPGTAPKLLIYGHTNRPAGVPDRFSGSKSGTSASLAISGFRSEDEADYYCASWDYTLSGWVFGGGTKLTVLG | Kd | 0.063

Need Kd, item C6-B1D1 (scFv, Combined B and D library mutations on C6ML3-9) scFv: QVQLLQSGAELKKPGESLKISCKGSGYSFTSYWIAWVRQMPGKGLEYMGLIYPGDSDTKYSPSFQGQVTISVDKSVSTAYLQWSSLKPSDSAVYFCARHDVGYCTDRTCAKWPEWLHVWGQGTLVTVSSGGGGSGGGGSGGGGSQSVLTQPPSVSAAPGQKVTISCSGSSSNIGNNYVSWYQQLPGTAPKLLIYGHTNRPAGVPDRFSGSKSGTSASLAISGFRSEDEADYYCASWDYTLSGWVFGGGTKLTVLG
0.032
